Experiment: Compound was evaluated for Plasma levels upon oral administration at 30 mg/kg in Dog at maximum of 0.3 hours
Assay type: ADME, organism-based, Canis lupus familiaris
Parameters: dose 30 mg/kg, route oral
Experimental Endpoint: concentration at 0.3 h (µM)
Supply the numeric figure in µM, leaving out any unit text.

Query block: I'd like to know its concentration at 0.3 h. The compound in question is "O=C1CCCN(c2ccccc2)N1"
Result block: 124

Where do these numbers come from? They come from ChEMBL document CHEMBL1152112.
